The reader will find reported IC50, HRG1-β1 induced pHER3, MCF-7 values listed item by item below.
# system_name: hHER3 full length (human, UniProt P21860 20-1342)
# assay_overview: cell-based or functional assay
readout_kind: IC50, HRG1-β1 induced pHER3, MCF-7 (M)

>>> endpoint_result("18F05 (VHH, also called 18F5) VHH: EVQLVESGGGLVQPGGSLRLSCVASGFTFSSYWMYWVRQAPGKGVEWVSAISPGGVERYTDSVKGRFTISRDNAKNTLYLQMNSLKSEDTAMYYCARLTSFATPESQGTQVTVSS")
"1.53e-09"
>>> endpoint_result("18G11 (VHH, c-myc, His6-tagged form as expressed; also called HER3MS18G11; HER3MS018G11) VHH: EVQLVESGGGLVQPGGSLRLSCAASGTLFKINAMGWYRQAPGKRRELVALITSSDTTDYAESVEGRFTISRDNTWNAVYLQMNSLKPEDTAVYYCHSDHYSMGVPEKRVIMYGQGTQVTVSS")
"1.03e-08"
